The reported numbers originate from patent US6914045B2.

- System: Enterococcus sp.
- EXPERIMENT: in vitro antibacterial evaluation, MIC by broth dilution
- Type: cell-based
- REPORTED CONDITIONS: strain GC 2243; broth dilution, 18 hours at 35° C.
MEASURED ENDPOINT: MIC Enterococcus faecium (GC 2243) (µg/mL)
Give your result in µg/mL as a bare value.

Problem: Dear colleague, please send me the reported MIC Enterococcus faecium (GC 2243) for CC(c1ccccc1)C1NC(=O)CNC(=O)C(CO)NC(=O)C(C(O)C2CNC(=N)N2C2OC(CO)C(O)C(O)C2O)NC(=O)C(C(O)C2CNC(=N)N2)NC(=O)C(Cc2ccc3oc(-c4ccoc4)nc3c2)NC1=O (stereo not drawn) when you can.
Result: 128

Problem: Dear colleague, please send me the reported MIC Enterococcus faecium (GC 2243) for CC(=O)n1cc(C2OCC3OC(OC4C(CO)OC(Oc5ccc(CC6NC(=O)C(C(C)c7ccccc7)NC(=O)CNC(=O)C(CO)NC(=O)C(C(O)C7CNC(=N)N7C7OC(CO)C(O)C(O)C7O)NC(=O)C(C(O)C7CNC(=N)N7)NC6=O)cc5)C(O)C4O)C(O)C(O)C3O2)c2ccccc21 (stereo not drawn) when you can.
Result: 16

Problem: Dear colleague, please send me the reported MIC Enterococcus faecium (GC 2243) for CC(C)=CCCC(C)=CCOc1ccc(C2OCC3OC(OC4C(CO)OC(Oc5ccc(CC6NC(=O)C(C(C)c7ccccc7)NC(=O)CNC(=O)C(CO)NC(=O)C(C(O)C7CNC(=N)N7C7OC(CO)C(O)C(O)C7O)NC(=O)C(C(O)C7CNC(=N)N7)NC6=O)cc5)C(O)C4O)C(O)C(O)C3O2)cc1 (stereo not drawn) when you can.
Result: 2

Problem: Dear colleague, please send me the reported MIC Enterococcus faecium (GC 2243) for CC(c1ccccc1)C1NC(=O)CNC(=O)C(CO)NC(=O)C(CC2CNC(=N)N2C2OC(CO)C(O)C(O)C2O)NC(=O)C(CC2CNC(=N)N2)NC(=O)C(Cc2ccc3oc(-c4ccc5c(c4)Cc4ccccc4-5)nc3c2)NC1=O (stereo not drawn) when you can.
Result: 4

Problem: Dear colleague, please send me the reported MIC Enterococcus faecium (GC 2243) for CC(c1ccccc1)C1NC(=O)CNC(=O)C(CO)NC(=O)C(C(O)C2CNC(=N)N2C2OC(CO)C(O)C(O)C2O)NC(=O)C(C(O)C2CNC(=N)N2)NC(=O)C(Cc2ccc3oc(SCc4ccccc4)nc3c2)NC1=O (stereo not drawn) when you can.
Result: 16

Problem: Dear colleague, please send me the reported MIC Enterococcus faecium (GC 2243) for CC(c1ccccc1)C1NC(=O)CNC(=O)C(CO)NC(=O)C(C(O)C2CNC(=N)N2C2OC(CO)C(O)C(O)C2O)NC(=O)C(C(O)C2CNC(=N)N2)NC(=O)C(Cc2ccc3oc(SCC(=O)c4ccc(Cl)cc4)nc3c2)NC1=O (stereo not drawn) when you can.
Result: 8

Problem: Dear colleague, please send me the reported MIC Enterococcus faecium (GC 2243) for COc1ccc(Oc2cccc(-c3nc4cc(CC5NC(=O)C(C(C)c6ccccc6)NC(=O)CNC(=O)C(CO)NC(=O)C(C(O)C6CNC(=N)N6C6OC(CO)C(O)C(O)C6O)NC(=O)C(C(O)C6CNC(=N)N6)NC5=O)ccc4o3)c2)cc1 (stereo not drawn) when you can.
Result: 8

Problem: Dear colleague, please send me the reported MIC Enterococcus faecium (GC 2243) for CC(c1ccccc1)C1NC(=O)CNC(=O)C(CO)NC(=O)C(C(O)C2CNC(=N)N2C2OC(CO)C(O)C(O)C2O)NC(=O)C(C(O)C2CNC(=N)N2)NC(=O)C(Cc2ccc(OC3OC(CO)C(OC4OC5COC(c6ccc(-c7cccs7)cc6)OC5C(O)C4O)C(O)C3O)cc2)NC1=O (stereo not drawn) when you can.
Result: 8

Problem: Dear colleague, please send me the reported MIC Enterococcus faecium (GC 2243) for CC(c1ccccc1)C1NC(=O)CNC(=O)C(CO)NC(=O)C(C(O)C2CNC(=N)N2C2OC(CO)C(O)C(O)C2O)NC(=O)C(C(O)C2CNC(=N)N2)NC(=O)C(Cc2ccc(OC3OC(CO)C(OC4OC5COC(c6cc7c(cc6Cl)OCO7)OC5C(O)C4O)C(O)C3O)cc2)NC1=O (stereo not drawn) when you can.
Result: 4
